Entry source: ChEMBL document CHEMBL1759983

Assay system Heat shock protein HSP 90-alpha (Homo sapiens, UniProt P07900); read-out recorded as pIC50.
Schema: pIC50 number; meaning minus log10 of the concentration expressed in molar units.

Bench note, Heat shock protein HSP 90-alpha (Homo sapiens, UniProt P07900): entry `Cc1c2c(n3c1CCCN(C)C[C@H](C)Nc1cc-3ccc1C(N)=O)CC(C)(C)CC2=O` , its pIC50 = 6.82

Bench note, Heat shock protein HSP 90-alpha (Homo sapiens, UniProt P07900): entry Cc1c2c(n3c1CCNCC(O)CNc1cc-3ccc1C(N)=O)CC(C)(C)CC2=O (stereo not given) , its pIC50 = 6.49

Bench note, Heat shock protein HSP 90-alpha (Homo sapiens, UniProt P07900): entry Cc1c2c(n3c1CCNCC(C)CNc1cc-3ccc1C(N)=O)CC(C)(C)CC2=O (stereo not given) , its pIC50 = 6.44

Bench note, Heat shock protein HSP 90-alpha (Homo sapiens, UniProt P07900): entry `Cc1c2c(n3c1CCNCCOCCNc1cc-3ccc1C(N)=O)CC(C)(C)CC2=O` , its pIC50 = 6.24

Bench note, Heat shock protein HSP 90-alpha (Homo sapiens, UniProt P07900): entry `Cc1c2c(n3c1CCCNCC(C)(C)CNc1cc-3ccc1C(N)=O)CC(C)(C)CC2=O` , its pIC50 = 6.54

Bench note, Heat shock protein HSP 90-alpha (Homo sapiens, UniProt P07900): entry `Cc1c2c(n3c1CCCNCC(C)(C)Nc1cc-3ccc1C(N)=O)CC(C)(C)CC2=O` , its pIC50 = 6.08

Bench note, Heat shock protein HSP 90-alpha (Homo sapiens, UniProt P07900): entry Cc1c2c(n3c1CCC(C)NCCNc1cc-3ccc1C(N)=O)CC(C)(C)CC2=O (stereo not given) , its pIC50 = 5.91

Bench note, Heat shock protein HSP 90-alpha (Homo sapiens, UniProt P07900): entry `Cc1c2c(n3c1CCCNC(C)(C)CNc1cc-3ccc1C(N)=O)CC(C)(C)CC2=O` , its pIC50 = 6.85

Bench note, Heat shock protein HSP 90-alpha (Homo sapiens, UniProt P07900): entry `Cc1c2c(n3c1CCCNCCNc1cc-3ccc1C(N)=O)CC(C)(C)CC2=O` , its pIC50 = 6.04
